Each item that follows carries a reported IC50.
experimental system: UniProt:Q08881
Sequence (Q08881 whole entry): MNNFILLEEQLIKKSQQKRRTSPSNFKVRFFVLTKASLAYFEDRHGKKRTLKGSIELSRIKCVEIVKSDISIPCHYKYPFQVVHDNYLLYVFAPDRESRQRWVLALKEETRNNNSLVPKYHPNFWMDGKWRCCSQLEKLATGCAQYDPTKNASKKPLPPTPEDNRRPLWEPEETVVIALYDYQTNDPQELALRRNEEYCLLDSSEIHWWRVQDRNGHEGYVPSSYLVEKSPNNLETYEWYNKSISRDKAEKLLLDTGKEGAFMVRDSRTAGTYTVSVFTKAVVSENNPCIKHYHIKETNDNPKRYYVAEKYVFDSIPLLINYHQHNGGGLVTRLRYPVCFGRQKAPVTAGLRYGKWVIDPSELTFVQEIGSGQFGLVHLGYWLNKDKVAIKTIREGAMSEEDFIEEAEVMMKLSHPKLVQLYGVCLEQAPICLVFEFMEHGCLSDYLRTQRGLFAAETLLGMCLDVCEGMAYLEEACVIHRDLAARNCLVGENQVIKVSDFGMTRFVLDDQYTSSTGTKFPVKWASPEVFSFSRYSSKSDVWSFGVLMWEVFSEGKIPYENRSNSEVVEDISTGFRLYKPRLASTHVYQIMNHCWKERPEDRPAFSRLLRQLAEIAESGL
method description: Inhibition of a panel of kinases, in vitro HotSpot kinase assay: ITK
Assay type: biochemical
test parameters: D-compounds panel data; 1 μM ATP

# molecule, obs value
data = [
    ("C[C@@H]1[C@H](NC(=O)c2ccc(C3CC3)cc2Cl)CCCN1c1cnc(C(N)=O)c(Nc2cnn(C)c2)n1", "1 to 10 µM"),
    ("Cn1cc(Nc2nc(N3CCC[C@@H](n4ccc5cc(C6CC6)ncc5c4=O)C3)cnc2C(N)=O)cn1", "0.1 to 1 µM"),
    ("Cn1cc(Nc2nc(N3CCC(F)(F)[C@H](NC(=O)c4ccc(C5CC5)cc4)C3)cnc2C(N)=O)cn1", "1 to 10 µM"),
    ("Cc1cc(Nc2nc(N3CCC[C@@H](NC(=O)c4ccc(C(C)(C)O)cc4)C3)cnc2C(N)=O)sn1", "0.1 to 1 µM"),
    ("CN(C)C(=O)N[C@H]1CCCN(c2cnc(C(N)=O)c(Nc3ccc4ncccc4c3)n2)[C@H]1CO (racemic)", "> 10 µM"),
    ("COC(C)(C)c1ccc(C(=O)N[C@@H]2CCCN(c3cnc(C(N)=O)c(Nc4cnn(C)c4)n3)[C@@H]2C)cc1", "0.1 to 1 µM"),
]

Field: next molecule
Requested field: IC50. Item: Cc1csc(Nc2nc(N3CCC[C@@H](NC(=O)c4ccc(C5CC5)cc4F)[C@H]3C)cnc2C(N)=O)n1
> 10 µM

###

IC50 values by entry
experimental system: TEC (Homo sapiens, UniProt P42680)
Sequence (P42680 1-631): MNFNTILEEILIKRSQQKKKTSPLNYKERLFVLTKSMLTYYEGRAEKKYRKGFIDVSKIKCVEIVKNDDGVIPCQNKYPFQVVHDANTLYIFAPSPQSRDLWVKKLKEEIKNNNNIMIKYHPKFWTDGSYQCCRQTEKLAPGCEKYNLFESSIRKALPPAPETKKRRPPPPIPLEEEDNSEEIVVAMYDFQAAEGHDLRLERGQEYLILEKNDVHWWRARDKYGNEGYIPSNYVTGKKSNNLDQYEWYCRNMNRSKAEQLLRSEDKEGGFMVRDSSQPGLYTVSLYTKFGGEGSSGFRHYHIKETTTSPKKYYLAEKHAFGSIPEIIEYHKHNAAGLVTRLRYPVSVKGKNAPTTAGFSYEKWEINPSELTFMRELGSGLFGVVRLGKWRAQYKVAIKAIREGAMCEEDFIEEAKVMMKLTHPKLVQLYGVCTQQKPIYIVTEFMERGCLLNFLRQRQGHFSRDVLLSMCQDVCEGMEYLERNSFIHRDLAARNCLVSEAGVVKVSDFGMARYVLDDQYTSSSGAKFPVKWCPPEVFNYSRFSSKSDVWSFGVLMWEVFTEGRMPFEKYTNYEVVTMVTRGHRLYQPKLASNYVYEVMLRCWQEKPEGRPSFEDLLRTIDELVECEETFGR
method description: Inhibition of a panel of kinases, in vitro HotSpot kinase assay: TEC
Assay type: biochemical
test parameters: D-compounds panel data; 1 μM ATP

Reference set (6 entries):
# line notation, IC50
measured = [
    ("C[C@@H]1[C@H](NC(=O)c2ccc(C3CC3)cc2F)CCCN1c1cnc(C(N)=O)c(Nc2ccc(N3CCNCC3)c(F)c2)n1", "≤ 10 nM"),
    ("C[C@@H]1[C@H](NC(=O)c2ccc(C(C)(C)N)cc2)CCCN1c1cnc(C(N)=O)c(Nc2cnn(C)c2)n1", "≤ 10 nM"),
    ("Cc1cc(Nc2nc(N3CCC[C@H](c4ncc(-c5ccccc5)[nH]4)C3)cnc2C(N)=O)sn1", "100 to 1000 nM"),
    ("C[C@@H]1[C@H](NC(=O)N(C)C)CCCN1c1cnc(C(N)=O)c(Nc2ccc(N3CCN(C4CCCC4)CC3)cc2)n1", "100 to 1000 nM"),
    ("C[C@@H]1[C@H](NC(=O)c2ccc(N(C)CCO)cc2)CCCN1c1cnc(C(N)=O)c(Nc2cnn(C)c2)n1", "≤ 10 nM"),
    ("C[C@@H]1[C@H](NC(=O)N(C)C)CCCN1c1cnc(C(N)=O)c(Nc2cc(C3CCN(C4CCCC4)CC3)ns2)n1", "10 to 100 nM"),
]

Lab note: need IC50 with TEC (Homo sapiens, UniProt P42680) for entry Cc1ncc(Nc2nc(N3CCC[C@@H](NC(=O)c4ccc(C5CC5)cc4)[C@H]3C)cnc2C(N)=O)s1 , please look it up.
≤ 10 nM

Test system TEC (Homo sapiens, UniProt P42680); read-out IC50; what value for C[C@@H]1[C@H](NC(=O)N(C)C)CCCN1c1cnc(C(N)=O)c(Nc2cc(C3CCOCC3)ns2)n1 ?
≤ 10 nM

Give recorded IC50 with TEC (Homo sapiens, UniProt P42680) for the following molecule: Cc1cc(Nc2nc(N3CCC[C@@H](NC(=O)c4ccc(C(C)(C)O)cc4)[C@H]3C)cnc2C(N)=O)sn1
≤ 10 nM

Test system TEC (Homo sapiens, UniProt P42680); read-out IC50; what value for C[C@@H]1CC[C@H](NC(=O)N(C)C)CN1c1cnc(C(N)=O)c(Nc2cnn(C)c2)n1 ?
10 to 100 nM

Find IC50 (TEC (Homo sapiens, UniProt P42680)) for the entry CN(C)c1ccc2c(=O)n([C@@H]3CCCN(c4cnc(C(N)=O)c(Nc5cnn(C)c5)n4)C3)ccc2c1
10 to 100 nM

Data provenance: patent US20210070748A1
